Value source: paper PMC7114193

# Study target: ACE2 (Homo sapiens), Q9BYF1
# Sequence (Q9BYF1 18-740): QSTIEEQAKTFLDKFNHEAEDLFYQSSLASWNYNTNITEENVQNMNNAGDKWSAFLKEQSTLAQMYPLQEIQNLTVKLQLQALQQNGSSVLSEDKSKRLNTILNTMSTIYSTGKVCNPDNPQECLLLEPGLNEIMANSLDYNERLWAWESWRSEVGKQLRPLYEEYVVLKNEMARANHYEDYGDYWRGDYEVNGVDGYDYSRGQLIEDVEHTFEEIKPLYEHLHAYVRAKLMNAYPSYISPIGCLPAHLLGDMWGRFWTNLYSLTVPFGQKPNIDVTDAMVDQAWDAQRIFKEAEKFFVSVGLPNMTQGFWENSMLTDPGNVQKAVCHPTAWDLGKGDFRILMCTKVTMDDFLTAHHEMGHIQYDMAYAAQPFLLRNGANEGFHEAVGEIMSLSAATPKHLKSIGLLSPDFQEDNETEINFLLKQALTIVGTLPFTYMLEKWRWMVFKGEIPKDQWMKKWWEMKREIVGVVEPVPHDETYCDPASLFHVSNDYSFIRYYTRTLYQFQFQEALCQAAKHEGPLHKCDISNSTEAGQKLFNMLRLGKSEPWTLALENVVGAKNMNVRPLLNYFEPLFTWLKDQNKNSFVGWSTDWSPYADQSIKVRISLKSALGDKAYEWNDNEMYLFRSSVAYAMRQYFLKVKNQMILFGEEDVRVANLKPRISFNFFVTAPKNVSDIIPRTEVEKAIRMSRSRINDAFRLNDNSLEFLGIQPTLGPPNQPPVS
# Protocol text: SPR
# Condition description: modification not given
The binders listed here are annotated with their Kd.
Expressed in µM, but write only the number.

Sample answers from the record:
Binder | Val
YKYRYLRHGKLR [RBD-11 peptide, P59594] | 67
CYWPLNDYGFYT [RBD-14 peptide, P59594] | 430
YKYRYL [RBD-11b peptide] | 46

Moving on to another binder below.
// query Consider the binder shown here: TTGIGYQPYRVV [RBD-15 peptide, P59594] What is its recorded Kd?
// result 450
